molecular target: HCV NS5B (Hepatitis C virus genotype 1b); construct: The protein was expressed with an 18 amino acid C-terminal truncation to enhance the solubility; assay: HCV NS5B RdRp enzyme assay; conditions: HCV NS5B RdRp genotype 1b; standard or modified assay not specified
Sequence (Q9WMX2 2420-2992): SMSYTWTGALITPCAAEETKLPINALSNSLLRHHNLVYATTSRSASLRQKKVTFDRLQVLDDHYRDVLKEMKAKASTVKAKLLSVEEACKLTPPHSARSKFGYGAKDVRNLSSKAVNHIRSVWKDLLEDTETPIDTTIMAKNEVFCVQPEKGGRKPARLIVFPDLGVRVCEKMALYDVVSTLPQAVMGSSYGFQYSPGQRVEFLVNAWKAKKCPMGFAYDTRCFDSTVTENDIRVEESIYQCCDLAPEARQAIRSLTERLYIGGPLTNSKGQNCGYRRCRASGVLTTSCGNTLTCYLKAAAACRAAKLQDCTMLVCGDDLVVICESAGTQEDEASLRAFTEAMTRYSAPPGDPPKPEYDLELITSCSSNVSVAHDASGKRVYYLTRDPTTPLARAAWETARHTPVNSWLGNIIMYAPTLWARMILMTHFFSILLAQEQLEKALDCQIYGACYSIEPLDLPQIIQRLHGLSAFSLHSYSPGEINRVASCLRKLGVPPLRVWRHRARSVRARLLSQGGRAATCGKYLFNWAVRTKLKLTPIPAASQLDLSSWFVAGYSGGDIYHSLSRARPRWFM
I'd appreciate it if you could supply IC50 values for the items below.
Give just the number in nM; leave the unit off.

Assign IC50 to the following record: `CNC(=O)c1c(-c2ccc(F)cc2)oc2ccc(-c3cc(C(=O)NC4(c5ccc6cccnc6n5)CC4)cc(F)c3C)c(F)c12` 10

State its IC50: `CNC(=O)c1c(-c2ccc(F)cc2)oc2ccc(-c3cc(C(=O)NC4(c5ccc6ncccc6n5)CC4)ccc3C)c(F)c12` 10

For the compound `CNC(=O)c1c(-c2ccc(F)cc2)oc2ccc(-c3cc(C(=O)NC4(c5ccc6ncccc6n5)CC4)ccc3C)cc12` , report IC50. 10
